The reported numbers originate from the supplement of paper PMC9694430.

Tested on: LOC_OS01G13800-cb001
Experimental protocol: thermal shift delta Tm vs DMSO control; higher = stronger stabilization (binding);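 also: purified Escherichia coli-expressed rice kinase domain construct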
Assay conditions: 12.5 µM; protein concentration 2 µM
Measured property: thermal shift delta Tm (°C)

Compound: CCCCCCCCCCCCCCCCCCOP(=O)([O-])OC1CC[N+](C)(C)CC1
Measured property: thermal shift delta Tm
Quantitative readout: -2.02
--
Compound: O=C(NCc1cccc(O)c1)Nc1nc(-c2ccncc2)cs1
Measured property: thermal shift delta Tm
Quantitative readout: -0.25
--
Compound: COc1ccc(Cl)c(Nc2nc3ccccc3nc2NS(=O)(=O)c2cccc(NC(=O)C(C)(C)N)c2)c1
Measured property: thermal shift delta Tm
Quantitative readout: 1.9
--
Compound: CCCCCCCCCCCCCCCCn1cc[n+](Cc2ccccc2)c1C
Measured property: thermal shift delta Tm
Quantitative readout: -6.34
--
Compound: CNC(=O)c1cc(Oc2ccc3nc(N[C@@H]4CCCC[C@H]4O)sc3c2)ccn1
Measured property: thermal shift delta Tm
Quantitative readout: 0.41
--
Compound: CC(C)CC(=O)Nc1n[nH]c2c1CN(C(=O)C1CCN(C)CC1)C2(C)C
Measured property: thermal shift delta Tm
Quantitative readout: 0.44
--
Compound: N#C/C(=C\c1ccc(O)c(O)c1)C(=O)NCc1ccccc1
Measured property: thermal shift delta Tm
Quantitative readout: 1.74
--
Compound: CN1CCN(Cc2ccc(NC(=O)Nc3ccc(Oc4ccnc(N)n4)cc3)cc2C(F)(F)F)CC1
Measured property: thermal shift delta Tm
Quantitative readout: 0.15
--
Compound: OC(c1cc(-c2ccc(Cl)cc2)nc2ccccc12)C1CCCCN1 (centres undefined)
Measured property: thermal shift delta Tm
Quantitative readout: 1.34

====

Tested on: LOC_OS02G07810-cb001
Experimental protocol: thermal shift delta Tm vs DMSO control; higher = stronger stabilization (binding)
Assay conditions: 12.5 µM; protein concentration 2 µM
Structures can show the parent of a compound that is named as a salt.
Known thermal shift delta Tm of a selection of compounds

Compound: Nc1ncccc1-c1nc2ccc(-c3ccccc3)nc2n1-c1ccc(C2(N)CCC2)cc1 [Miransertib (ARQ 092) HCl]
thermal shift delta Tm [°C]: -1.04
//
Compound: CCc1cncnc1N1CCN(Cc2nc3ccc(C(F)(F)F)cc3[nH]2)CC1
thermal shift delta Tm [°C]: 0.73
//
Compound: CNC(=O)c1cc(Oc2ccc(NC(=O)Nc3ccc(Cl)c(C(F)(F)F)c3)cc2)ccn1 [Sorafenib]
thermal shift delta Tm [°C]: 1.92
//
Compound: C[C@H](CN(C)C)Oc1nc(Nc2cc3cccc(Cl)c3cn2)cnc1C#N
thermal shift delta Tm [°C]: 0.31
//
Compound: N=C(N)NC(=N)NCCc1ccccc1 [Phenformin HCl]
thermal shift delta Tm [°C]: 0.75
//
Compound: C[C@@H](NC(=O)c1ncnc(N)c1Cl)c1ncc(C(=O)Nc2cc(C(F)(F)F)c(Cl)cn2)s1
thermal shift delta Tm [°C]: 0.35
//
Compound: Cc1ccc(S(=O)(=O)/C=C/C#N)cc1
thermal shift delta Tm [°C]: 0.83
//
Compound: Cc1c[nH]c(/C=C2\C(=O)Nc3ccccc32)c1CCC(=O)O
thermal shift delta Tm [°C]: -0.06
//
Compound: CN(C)C/C=C/C(=O)Nc1ccc(C(=O)Nc2cccc(Nc3ncc(Cl)c(-c4c[nH]c5ccccc45)n3)c2)cc1
thermal shift delta Tm [°C]: 1.36
//
Compound: Cc1cc(C(=O)Nc2nc3cccc(Cl)c3n2[C@@H]2CCCCN(C(=O)/C=C/CN(C)C)C2)ccn1 [Nazartinib (EGF816, NVS-816)]
thermal shift delta Tm [°C]: 0.98
//
Compound: O=C1NC(=O)/C(=C/c2ccc3c(c2)OC(F)(F)O3)S1
thermal shift delta Tm [°C]: 1.34
//
Compound: Nc1ccc(C(=O)Nc2cccc(-c3nc(N4CCOCC4)c4oc5ncccc5c4n3)c2)cn1
thermal shift delta Tm [°C]: 0.77
//
Compound: CO[C@H]1C[C@@H]2CC[C@@H](C)[C@@](O)(O2)C(=O)C(=O)N2CCCC[C@H]2C(=O)O[C@H]([C@H](C)C[C@@H]2CC[C@H](n3cnnn3)[C@H](OC)C2)CC(=O)[C@H](C)/C=C(\C)[C@@H](O)[C@@H](OC)C(=O)[C@H](C)C[C@H](C)/C=C/C=C/C=C/1C
thermal shift delta Tm [°C]: 1.19
//
Compound: C=CCc1ccc(O)c(-c2ccc(O)c(CC=C)c2)c1
thermal shift delta Tm [°C]: 1.8
//
Compound: CS(=O)(=O)c1ccc(-c2cnc(N)c(C(=O)Nc3ccccc3)n2)cc1
thermal shift delta Tm [°C]: 0.54
//
Compound: N#Cc1cccc(-c2c[nH]c3ncnc(N4CCOCC4)c23)c1
thermal shift delta Tm [°C]: 0.61
//
Compound: COc1cc(Nc2ncc(F)c(Nc3ccc4c(n3)NC(=O)C(C)(C)O4)n2)cc(OC)c1OC [R406 (free base)]
thermal shift delta Tm [°C]: 2.03

====

System: LOC_OS01G13800-cb001
Experimental protocol: thermal shift delta Tm vs DMSO control; higher = stronger stabilization (binding)
Assay conditions: 12.5 µM; protein concentration 2 µM
Counter-ions that a name gives are not always drawn.
Parameter thermal shift delta Tm: see the listing below.
Measured property: thermal shift delta Tm (°C)

Compound: CNC(=O)c1cc(Oc2ccc(NC(=O)Nc3ccc(Cl)c(C(F)(F)F)c3)cc2)ccn1 [Sorafenib Tosylate]
Result units: °C
Quantitative readout: 1.97
--
Compound: C=CC(=O)Nc1cccc(Nc2nc(Nc3ccc(NC4CN(CCF)C4)cc3OC)ncc2C(F)(F)F)c1
Result units: °C
Quantitative readout: -0.76
--
Compound: C=CC(=O)Nc1cc(Nc2nccc(-c3cn(C)c4ccccc34)n2)c(OC)cc1N(C)CCN(C)C
Result units: °C
Quantitative readout: -0.53
--
Compound: O=c1sn(-c2cccc3ccccc23)c(=O)n1Cc1ccccc1
Result units: °C
Quantitative readout: 0.16

====

Test system: LOC_OS04G57630-cb004
Experimental protocol: thermal shift delta Tm vs DMSO control; higher = stronger stabilization (binding)
Assay conditions: 12.5 µM; protein concentration 2 µM
Consider the following partition of reported thermal shift delta Tm into named classes: lo = under -0.2 °C, mid = from -0.2 °C up to 0.6 °C, hi = 0.6 °C and over

Smiles input: COc1ccc(-c2ccc3c(N4CCOCC4)nc(N4C[C@@H](C)O[C@@H](C)C4)nc3n2)cc1CO
Label: lo
//
Smiles input: CCCCCCCCCCCCCCCCn1cc[n+](Cc2ccccc2)c1C
Label: lo
//
Smiles input: Cc1ccccc1CN1C2=NCCN2C(=O)C2=C1CCN(Cc1ccccc1)C2
Label: mid
//
Smiles input: CC1(C)OCCn2c1nc1c(N3CCOCC3)nc(-c3cnc(N)nc3)nc12
Label: mid
//
Smiles input: Cn1cc(-c2ccc3ncc(Cc4ccc5ncccc5c4)n3n2)cn1
Label: hi
//
Smiles input: COc1cccc2cc(-c3nc([C@H]4CC[C@H](C(=O)O)CC4)n4ncnc(N)c34)[nH]c12
Label: mid
//
Smiles input: CN1CCCN(C(=O)c2cccc(-c3ccc(/C=C4/C(=O)Nc5ccc(Cl)cc54)o3)c2)CC1
Label: hi
//
Smiles input: CNC(=O)c1ccccc1Sc1ccc2c(/C=C/c3ccccn3)n[nH]c2c1
Label: mid

====

Test system: LOC_OS01G63280-cb003
Experimental protocol: thermal shift delta Tm vs DMSO control; higher = stronger stabilization (binding)
Assay conditions: 12.5 µM; protein concentration 2 µM
Measured property: thermal shift delta Tm

Smiles input: COc1ccc(-c2cc3nccn3c(Nc3ncccc3C(N)=O)n2)cc1OC
Measured property: thermal shift delta Tm
Result: 1.03 °C

Smiles input: Cc1ccc(C(=O)Nc2ccc(Oc3cc4cnn(C)c4cc3-c3cn[nH]c3)c(F)c2)c(=O)n1-c1ccc(F)cc1
Measured property: thermal shift delta Tm
Result: 5.18 °C

Smiles input: Cn1cnc2c(F)c(Nc3ccc(Br)cc3F)c(C(=O)NOCCO)cc21
Measured property: thermal shift delta Tm
Result: 0.46 °C

Smiles input: N#Cc1ccc2[nH]c(O)c(-c3ccc(CN4CCOCC4)cn3)c2c1
Measured property: thermal shift delta Tm
Result: 0.3 °C

Smiles input: CC[C@@H](N)CNc1ccnc(-c2cc(-c3cnn(C)c3)ccc2O)n1
Measured property: thermal shift delta Tm
Result: 0.05 °C

====

Listed below: thermal shift delta Tm values for each entry.
System: LOC_OS01G67340-cb003
Experimental protocol: thermal shift delta Tm vs DMSO control; higher = stronger stabilization (binding)
Assay conditions: 12.5 µM; protein concentration 2 µM

Molecule: N#CCNC(=O)c1ccc(-c2ccnc(Nc3ccc(N4CCOCC4)cc3)n2)cc1
Result units: °C
thermal shift delta Tm: 1.56

Molecule: C=CC(=O)Nc1cc(Nc2nccc(-c3cn(C)c4ccccc34)n2)c(OC)cc1N(C)CCN(C)C
Result units: °C
thermal shift delta Tm: 0.42

Molecule: CC(C)(O)CNc1ncc(-c2ccnc(Nc3ccnc(Cl)c3)n2)c(CC2CC2)n1
Result units: °C
thermal shift delta Tm: 0.66

Molecule: CN1CCN(c2ccc(OC(F)(F)F)c(Nc3ncc4c(n3)-c3c(c(C(N)=O)nn3CCO)CC4)c2)CC1
Result units: °C
thermal shift delta Tm: 0.36

Molecule: CC(=O)c1c(C)c2cnc(Nc3ccc(N4CCNCC4)cn3)nc2n(C2CCCC2)c1=O
Result units: °C
thermal shift delta Tm: 1.56

Molecule: C=CC(=O)Nc1cccc(Oc2nc(Nc3ccc(N4CCN(C)CC4)cc3)nc3ccsc23)c1
Result units: °C
thermal shift delta Tm: 0.85

Molecule: Cc1cc([C@@H](C)Nc2ccccc2C(=O)O)c2nc(N3CCOCC3)cc(=O)n2c1
Result units: °C
thermal shift delta Tm: -0.15

Molecule: CO[C@@H](C(=O)N1Cc2[nH]nc(NC(=O)c3ccc(N4CCN(C)CC4)cc3)c2C1)c1ccccc1
Result units: °C
thermal shift delta Tm: -0.26

Molecule: C#Cc1cccc(Nc2ncnc3cc(OCCOC)c(OCCO)cc23)c1
Result units: °C
thermal shift delta Tm: -0.22

Molecule: CC(C)(C)c1ccc(S(=O)(=O)/C=C/C#N)cc1
Result units: °C
thermal shift delta Tm: 0.12

Molecule: O=c1[nH]nc(Sc2ncc([N+](=O)[O-])s2)n1-c1ccc2c(c1)OCCO2
Result units: °C
thermal shift delta Tm: -6.49

Molecule: COc1ncc(-c2cc(-c3ncc(CN4C[C@@H](C)O[C@@H](C)C4)o3)c3cn[nH]c3c2)cc1NS(C)(=O)=O
Result units: °C
thermal shift delta Tm: 1.4

Molecule: COC(=O)Nc1ccc(-c2nc(N3CCOCC3)c3cnn(C4CCN(C(=O)OC)CC4)c3n2)cc1
Result units: °C
thermal shift delta Tm: 0.13

Molecule: Cc1ccc(Nc2nccc(N(C)c3ccc4c(C)n(C)nc4c3)n2)cc1S(N)(=O)=O [Pazopanib]
Result units: °C
thermal shift delta Tm: 0.96

Molecule: COc1cccc(-n2c(=O)[nH]c3cc(Cl)n(-c4ccc(-c5cccc(OC)c5O)cc4)c3c2=O)c1
Result units: °C
thermal shift delta Tm: 0.2

Molecule: O=c1sn(-c2cccc3ccccc23)c(=O)n1Cc1ccccc1
Result units: °C
thermal shift delta Tm: 0.24

Molecule: CCc1cncnc1N1CCN(Cc2nc3ccc(C(F)(F)F)cc3[nH]2)CC1
Result units: °C
thermal shift delta Tm: -0.58

Molecule: Nc1cccc(-c2cc3c(Oc4cccc(O)c4)ncnc3[nH]2)c1
Result units: °C
thermal shift delta Tm: 0.65
